assay: Oral bioavailability in ICR mouse at 10 mg/kg; assay type: ADME, organism-based; conditions: in vivo
measured.attribute: bioavailability

- given.smiles: "CC(C)(O)CCCn1c(Cn2nc(S(C)(=O)=O)c3ccncc32)nc2cc(Cl)ccc21"
  result: "29.3%"

----------
experiment: Tmax in rat at 10 mg/kg, po; assay type: ADME, organism-based; details: in vivo
measured.attribute: Tmax

- given.smiles: "CS(=O)(=O)CCCn1c(Cn2nc(S(C)(=O)=O)c3ccccc32)nc2cc(Cl)ccc21"
  measured.attribute: "Tmax"
  result: "2.67 h"

----------
Quick reference for clearance among some compounds
assay: Plasma clearance in ICR mouse at 2 mg/kg, iv; format: ADME, organism-based

- given.smiles: "CS(=O)(=O)c1nn(Cc2nc3cc(Cl)ccc3n2CCC(F)(F)F)c2cnccc12"
  clearance [mL/min/kg]: 12.2
- given.smiles: "CC(C)(O)CCn1c(Cn2nc(S(C)(=O)=O)c3ccncc32)nc2cc(Cl)ccc21"
  clearance [mL/min/kg]: 61.1
- given.smiles: "CS(=O)(=O)c1nn(Cc2nc3cc(Cl)ccc3n2CCCO)c2cnccc12"
  clearance [mL/min/kg]: 37.4
- given.smiles: "CC(C)(O)CCCn1c(Cn2nc(S(C)(=O)=O)c3ccncc32)nc2cc(Cl)ccc21"
  clearance [mL/min/kg]: 60.4

----------
assay: AUC (0 to 24 hrs) in ICR mouse at […], po; assay type: ADME, organism-based; design: time < 24 hr, dose 7.9 mg/kg, route oral; conditions: in vivo
measured.attribute: AUC(0-t) at 24 h (ng·h/mL)

- given.smiles: "CC(C)(O)CCn1c(Cn2nc(S(C)(=O)=O)c3ccncc32)nc2cc(Cl)ccc21"
  result: 546

----------
assay: Metabolic stability in mouse liver microsomes by high-throughput screening based assay; type: ADME, microsome; conditions: read-out: Stability
# thresholds on CLhep predicted define classes: low (below 20 mL/min/kg), middle (20 mL/min/kg to below 30 mL/min/kg), high (30 mL/min/kg or more)

- molecule: "CN(C)S(=O)(=O)c1cn(Cc2nc3cc(Cl)ccc3n2CCCS(C)(=O)=O)c2ccccc12"
  classification: "high"
- molecule: "CS(=O)(=O)CCCn1c(Cn2cc(S(C)(=O)=O)c3ccccc32)nc2cc(Cl)ccc21"
  classification: "high"
- molecule: "CS(=O)(=O)c1nn(Cc2nc3cc(Cl)ccc3n2CCC(O)C(F)(F)F)c2cnccc12 (configuration not stated)"
  classification: "middle"
- molecule: "CS(=O)(=O)CCCn1c(Cn2nc(S(C)(=O)=O)c3ccccc32)nc2cc(Cl)ccc21"
  classification: "low"
- molecule: "CS(=O)(=O)CCCn1c(Cn2nc(S(C)(=O)=O)c3ccncc32)nc2cc(Cl)ccc21"
  classification: "high"
- molecule: "CS(=O)(=O)c1nn(Cc2nc3cc(Cl)ccc3n2CCC(F)(F)F)c2cnccc12"
  classification: "low"
- molecule: "CS(=O)(=O)CCn1c(Cc2cn(S(C)(=O)=O)c3ccccc23)nc2ccccc21"
  classification: "high"
- molecule: "CS(=O)(=O)c1nn(Cc2nc3cc(Cl)ccc3n2CCCO)c2cnccc12"
  classification: "low"
- molecule: "CS(=O)(=O)c1nn(Cc2nc3cc(Cl)ccc3n2CCCCO)c2cnccc12"
  classification: "middle"
- molecule: "CS(=O)(=O)CCCc1c(CN2C(=O)C3(CC3)c3ccncc32)nc2cc(Cl)ccn12"
  classification: "high"
- molecule: "CS(=O)(=O)c1nn(Cc2nc3cc(Cl)ccc3n2CCCCC(F)(F)F)c2cnccc12"
  classification: "middle"
- molecule: "CS(=O)(=O)c1nn(Cc2nc3cc(Cl)ccc3n2CC2COC2)c2cnccc12"
  classification: "low"
- molecule: "CS(=O)(=O)c1nn(Cc2nc3cc(Cl)ccc3n2CCOCCO)c2cnccc12"
  classification: "low"
- molecule: "CC(C)(O)CCn1c(Cn2nc(S(C)(=O)=O)c3ccncc32)nc2cc(Cl)ccc21"
  classification: "middle"
- molecule: "CS(=O)(=O)CCc1c(CN2C(=O)C3(CC3)c3ccncc32)nc2cc(Cl)ccn12"
  classification: "high"
- molecule: "CC(C)(O)CCCn1c(Cn2nc(S(C)(=O)=O)c3ccncc32)nc2cc(Cl)ccc21"
  classification: "middle"

----------
Recorded half-life, one value per entry.
assay: Half life in ICR mouse at 2 mg/kg, iv; format: ADME, organism-based; settings: in vivo
measured.attribute: half-life (min)

- given.smiles: "CS(=O)(=O)c1nn(Cc2nc3cc(Cl)ccc3n2CCCO)c2cnccc12"
  result: 243
- given.smiles: "CS(=O)(=O)c1nn(Cc2nc3cc(Cl)ccc3n2CCC(F)(F)F)c2cnccc12"
  result: 61.8
- given.smiles: "CC(C)(O)CCCn1c(Cn2nc(S(C)(=O)=O)c3ccncc32)nc2cc(Cl)ccc21"
  result: 14.5
- given.smiles: "CS(=O)(=O)c1nn(Cc2nc3cc(Cl)ccc3n2CCCCO)c2cnccc12"
  result: 17.8
- given.smiles: "CC(C)(O)CCn1c(Cn2nc(S(C)(=O)=O)c3ccncc32)nc2cc(Cl)ccc21"
  result: 28.2

----------
# maps each entry to its AUC(0-t) at 24 h
experiment: AUC (0 to 24 hrs) in ICR mouse at 2 mg/kg, iv; assay type: ADME, organism-based; parameters: time < 24 hr, dose 2 mg/kg, route intravenous; details: ICR, in vivo
measured.attribute: AUC(0-t) at 24 h (ng·h/mL)

- given.smiles: "CS(=O)(=O)c1nn(Cc2nc3cc(Cl)ccc3n2CCCO)c2cnccc12"
  result: 954
- given.smiles: "CC(C)(O)CCn1c(Cn2nc(S(C)(=O)=O)c3ccncc32)nc2cc(Cl)ccc21"
  result: 701
- given.smiles: "CC(C)(O)CCCn1c(Cn2nc(S(C)(=O)=O)c3ccncc32)nc2cc(Cl)ccc21"
  result: 552

----------
Overview of reported half-life across a group of compounds:
test: Half life in ICR mouse at […], po; format: ADME, organism-based; conditions: in vivo
measured.attribute: half-life

- given.smiles: "CS(=O)(=O)c1nn(Cc2nc3cc(Cl)ccc3n2CCC(F)(F)F)c2cnccc12"
  result: "3.16 h"
- given.smiles: "CC(C)(O)CCn1c(Cn2nc(S(C)(=O)=O)c3ccncc32)nc2cc(Cl)ccc21"
  result: "1.98 h"

----------
test: Volume of distribution at steady state in ICR mouse at 1 mg/kg, iv; format: ADME, organism-based; details: in vivo, read-out: Vdss
measured.attribute: Vd

- given.smiles: "CS(=O)(=O)c1nn(Cc2nc3cc(Cl)ccc3n2CC2COC2)c2cnccc12"
  measured.attribute: "Vd"
  result: "0.88 L/kg"

----------
assay: Oral bioavailability in ICR mouse at 12.5 mg/kg; type: ADME, organism-based; conditions: in vivo
measured.attribute: bioavailability (%)

- given.smiles: "CS(=O)(=O)c1nn(Cc2nc3cc(Cl)ccc3n2CCCO)c2cnccc12"
  result: 17.1

----------
Listed below: CLhep predicted values for each entry.
test: Metabolic stability in rat liver microsomes by high-throughput screening based assay; type: ADME, microsome; details: read-out: Stability

- molecule: "CC(C)(O)CCn1c(Cn2nc(S(C)(=O)=O)c3ccncc32)nc2cc(Cl)ccc21"
  unit.annotation: "mL/min/kg"
  CLhep predicted: 8.45
- molecule: "CS(=O)(=O)c1nn(Cc2nc3cc(Cl)ccc3n2CCCCO)c2cnccc12"
  unit.annotation: "mL/min/kg"
  CLhep predicted: 20.7
- molecule: "CC(C)(O)CCCn1c(Cn2nc(S(C)(=O)=O)c3ccncc32)nc2cc(Cl)ccc21"
  unit.annotation: "mL/min/kg"
  CLhep predicted: 2.96
- molecule: "CN(C)S(=O)(=O)c1cn(Cc2nc3cc(Cl)ccc3n2CCCS(C)(=O)=O)c2ccccc12"
  unit.annotation: "mL/min/kg"
  CLhep predicted: 56.2
- molecule: "CS(=O)(=O)CCCn1c(Cn2cc(S(C)(=O)=O)c3ccccc32)nc2cc(Cl)ccc21"
  unit.annotation: "mL/min/kg"
  CLhep predicted: 1.33
- molecule: "CS(=O)(=O)c1nn(Cc2nc3cc(Cl)ccc3n2CCOCCO)c2cnccc12"
  unit.annotation: "mL/min/kg"
  CLhep predicted: 13.7
- molecule: "CS(=O)(=O)CCCn1c(Cn2nc(S(C)(=O)=O)c3ccncc32)nc2cc(Cl)ccc21"
  unit.annotation: "mL/min/kg"
  CLhep predicted: 39.9
- molecule: "CS(=O)(=O)c1nn(Cc2nc3cc(Cl)ccc3n2CCC(O)C(F)(F)F)c2cnccc12 (configuration not stated)"
  unit.annotation: "mL/min/kg"
  CLhep predicted: 18
- molecule: "CS(=O)(=O)c1nn(Cc2nc3cc(Cl)ccc3n2CCCO)c2cnccc12"
  unit.annotation: "mL/min/kg"
  CLhep predicted: 14.9
- molecule: "CS(=O)(=O)c1nn(Cc2nc3cc(Cl)ccc3n2CCC(F)(F)F)c2cnccc12"
  unit.annotation: "mL/min/kg"
  CLhep predicted: 0.28
- molecule: "CS(=O)(=O)c1nn(Cc2nc3cc(Cl)ccc3n2CCCCC(F)(F)F)c2cnccc12"
  unit.annotation: "mL/min/kg"
  CLhep predicted: 6.15
- molecule: "CS(=O)(=O)c1nn(Cc2nc3cc(Cl)ccc3n2CC2COC2)c2cnccc12"
  unit.annotation: "mL/min/kg"
  CLhep predicted: 19.8
